# System Tested: T1, Unprocessed hMPV PreF trimer (human metapneumovirus, strain B2)
# T1 construct: also called Unprocessed hMPV WT PreF trimer; unprocessed hMPV PreF trimeric antigen
# Protocol Details: BLI, mAb on anti-human Fc sensor
Assay Readout: Octet binding response (nm)
The answer is to be given in nm; state only the numeric part.

Inquiry: Given the binder M2D11 (antibody, V domains shown, IgG) VH: QVQLQQWGAGLLKPSETLSLTCAVSGGSFSGYHWTWIRQPPGKGLEWIGEVDHGGNTNYNPSLMSRVTISVDMSTKQFSLRLTSMTAADTAVYYCARGFGVVINNWFDPWGQGTLVTVTS VL: DIQMTQSPSSLSASVGDRVTITCRASQTISSYLNWYQQKPGKAPNLLIYTVSTLQSGVPSRFSGSGSGTDFTLTISSLQPEDFATYYCQQSYGAPYTFGQGTKLEIK , what is its reported Octet binding response?
Reply text: 0.41

Inquiry: Can you check M2E11L (antibody, V domains shown) VH: QVQLVQSGAIMKKPGSSVKVSCKASGGTFTNFAFSWVRQAPGQGLEWMGGIIPFVGPANYAPQFQGRVTITADESTTTAYMELNSLRSEDTAVYYCARVRGFGETAYFYHYYMDVWGKGTTVTVSS VL: QTVVTQEPSLSVSPGGTVTLTCGLSSGSVSTSHFPSWYQQIPGQPPRTLIYSTITRSSGVPDRFSGSILGNKATLTITGAQADDECDYYCVLYLGGGIPHWVFGGGTKLTVL next?
Reply text: 0.332

Inquiry: Can you check M3A12 (antibody, V domains shown, IgG) VH: QVQLQESGPQLVKPSQTLSLTCTVSGDSISSSDYCWSWIRQSPGKGLEWIGHSVYSGDTQYNPSLKSRLSISVDTSKNQFSLRLRSVTAADTAVYYCARGNDFWSGSFDYWGQGALVIVSS VL: DIQMTQSPSSLSASVGDRVTITCRASQSIGTYLNWYQQKPGKAPKVLIYAASSLQSGVPSRFSGRGSGTDFTLTVSSLQPEDFASYYCQQSYTKPYTFGQGTKLEIK next?
Reply text: 0.31

Inquiry: Can you check M2C07 (antibody, V domains shown, IgG) VH: QVQLQESGPGLVAPSQTLSLICDVSGDSVTSGAYSWSWIRQHPVKGLEWIAYINYSGRTNYNPSLQSRLVISVDRSKNQFSLRLSSVTAADTAVYYCARANVVGYSGFYFDYWGQGTLVAVSS VL: DIQMTQSPSSLSASVGDTVTITCRASQSVGAYLNWYQQKPGKAPKLLVFAGSSLQTGVPSRFSGRGSRTEFTLTITNLQREDFASYYCQQSLGDFLTFGGGTKVEIK next?
Reply text: 0.418

Inquiry: Can you check M2B11 (antibody, V domains shown, IgG) VH: QVQLVQSGTEVKKPGASVKVSCKASGYTFTSHDINWLRQATGQGLEWLGWMNPNSATTGYAQKFQGRVTLTRDISISTAYMELSSLRSDDTAVYYCARNRHYYYADGPTRDAFDIWGQGTVVTVSS VL: SYELTQTPTVSVSPGQTASITCSGDELGHKYTSWYQQKPGQSPVLVVYQDTKRPSGIPERFSGSNSGNTATLTISGTQVMDEADYYCQAWDSGTVLLGGGTKLTVL next?
Reply text: 0.38
